TEST_DETAILS: Pharmacokinetics in Sprague Dawley rats, single subcutaneous or intravenous dose (incl. 10, 30, 100 nmol/kg dose response)
Format: in vivo
EXPERIMENTAL_SETUP: male, Sprague Dawley, rat, plasma, sc, 100 nmol/kg, dose response, single subcutaneous dose 100 nmol/kg, mean, read-out: CL/F (converted)
*1 amine or outer side, *2 acyl side, *3 side chain or, on linkers, in order; H or OH if unused. Side-chain parts run from the residue outwards. [ ]: non-standard residue; d: D form. The star is where a group is joined. C20 diacid = O=C(O)CCCCCCCCCCCCCCCCCCC(=O)*; γGlu = O=C(O)[C@H](CCC(=O)[*:2])N[*:1]; εLys = N[C@@H](CCCCN[*:1])C(=O)[*:2]; pGlu = O=C1CC[C@@H](C(=O)O)N1; αMeL = CC(C)C[C@](C)(N)C(=O)O; AEEA = NCCOCCOCC(=O)O; Aib = CC(C)(N)C(=O)O

SUBSTANCE	CL/F
{C20 diacid-εLys-AEEA-γGlu}-GSPSIVTS[αMeL]DVPT[Aib][αMeL]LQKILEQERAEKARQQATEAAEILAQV-NH2 [SEQ ID NO: 25]	7.54 mL/h/kg
[pGlu]GSPSGIVTS[αMeL]DVPT[Aib][αMeL]LQKILEQERAEKARQQAK([γGlu-AEEA-εLys-C20 diacid])EAAEILAQV-NH2 [SEQ ID NO: 22]	3.89 mL/h/kg
Ac-GSPSIVTS[αMeL]DVPT[Aib][αMeL]LQKILEQERAEKARQQAK([γGlu-AEEA-εLys-C20 diacid])EAAEILAQV-NH2 [SEQ ID NO: 1]	5.08 mL/h/kg

###

TEST_DETAILS: Pharmacokinetics in Sprague Dawley rats, single subcutaneous or intravenous dose (incl. 10, 30, 100 nmol/kg dose response)
Format: in vivo
EXPERIMENTAL_SETUP: male, Sprague Dawley, rat, plasma, sc, 183 nmol/kg, single subcutaneous dose 183 nmol/kg, individual animal, read-out: Tmax
*1 amine or outer side, *2 acyl side, *3 side chain or, on linkers, in order; H or OH if unused. Side-chain parts run from the residue outwards. [ ]: non-standard residue; d: D form. The star is where a group is joined. C20 diacid = O=C(O)CCCCCCCCCCCCCCCCCCC(=O)*; γGlu = O=C(O)[C@H](CCC(=O)[*:2])N[*:1]; εLys = N[C@@H](CCCCN[*:1])C(=O)[*:2]; pGlu = O=C1CC[C@@H](C(=O)O)N1; αMeL = CC(C)C[C@](C)(N)C(=O)O; AEEA = NCCOCCOCC(=O)O; Aib = CC(C)(N)C(=O)O

SUBSTANCE	Tmax [h]
[pGlu]GSPSGIVTS[αMeL]DVPT[Aib][αMeL]LQKILEQERAEKARQQAK([γGlu-AEEA-εLys-C20 diacid])EAAEILAQV-NH2 [SEQ ID NO: 22]	24

###

TEST_DETAILS: Pharmacokinetics in Yucatan mini-pigs, single subcutaneous or intravenous dose
Format: in vivo
EXPERIMENTAL_SETUP: male, Yucatan mini-pig, minipig, plasma, sc, 18 nmol/kg, single subcutaneous dose 18 nmol/kg, individual animal
*1 amine or outer side, *2 acyl side, *3 side chain or, on linkers, in order; H or OH if unused. Side-chain parts run from the residue outwards. [ ]: non-standard residue; d: D form. The star is where a group is joined. C20 diacid = O=C(O)CCCCCCCCCCCCCCCCCCC(=O)*; γGlu = O=C(O)[C@H](CCC(=O)[*:2])N[*:1]; εLys = N[C@@H](CCCCN[*:1])C(=O)[*:2]; pGlu = O=C1CC[C@@H](C(=O)O)N1; αMeL = CC(C)C[C@](C)(N)C(=O)O; AEEA = NCCOCCOCC(=O)O; Aib = CC(C)(N)C(=O)O

SUBSTANCE	UNIT_OF_MEASURE	half-life
[pGlu]GSPSGIVTS[αMeL]DVPT[Aib][αMeL]LQKILEQERAEKARQQAK([γGlu-AEEA-εLys-C20 diacid])EAAEILAQV-NH2 [SEQ ID NO: 22]	h	79.1
